Would you kindly list pKd for each of these binders?
# target_of_assay: T1, hNgR1-his (human, UniProt Q9BZR6 27-447, limits assumed)
# T1 construct: Soluble antigen flowed over antibodies captured on Protein A chips; also called antigen protein (hNgR1-his); the antigen; not shown: histidine tag
# T1 sequence (looked up): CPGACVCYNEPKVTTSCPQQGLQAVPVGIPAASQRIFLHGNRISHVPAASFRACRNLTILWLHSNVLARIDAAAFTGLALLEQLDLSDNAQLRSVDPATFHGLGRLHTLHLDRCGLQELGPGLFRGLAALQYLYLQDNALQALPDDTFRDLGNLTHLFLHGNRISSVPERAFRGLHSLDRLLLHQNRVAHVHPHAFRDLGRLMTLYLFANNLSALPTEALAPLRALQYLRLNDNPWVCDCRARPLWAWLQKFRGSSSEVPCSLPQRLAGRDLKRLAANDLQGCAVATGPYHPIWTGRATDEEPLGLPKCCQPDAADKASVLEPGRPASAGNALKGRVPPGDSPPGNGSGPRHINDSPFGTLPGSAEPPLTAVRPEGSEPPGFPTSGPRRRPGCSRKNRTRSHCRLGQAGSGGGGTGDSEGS
# measurement_description: SPR, Biacore T200; IgG1 captured on Protein A chip, hNgR1-his flowed at different concentrations
API: returns pKd as number; meaning -log10 of concentration in mol/L.

Consider the binder S6 antibody (antibody, human IgG1, kappa, V domains shown, Optimized from CSA123) VH: QMQLVQSGAEVKKPGASVKVSCKVSGYTLSGLSIHWVRQAPGKGLEWMGGFDSEDDETVYAQKFQGRVTLTDDTSTDTAYMELSSLRSEDTAVYYCARDLGYLTSGNYYDAFDIWGRGTMITVSS VL: DIQMTQSPSSVSASVGDRVTITCRASQDINRWLAWYQQKPGKAPKLLIYAASRLQSGVPLRFSGSGSGTDFTLTINSLQPEDSATYYCQQTNNFPRTFGQGTRLEIKR . State its measured pKd.
8.26

Give a short answer stating reported pKd for CSA108 antibody (antibody, human IgG1, kappa, V domains shown, also called anti-NgR1 antibody CSA108) VH: QMQLVQSGGGLEQPGRSLRLSCVTSGFNFNDYAMHWVRQAPGKGLEWVSGISWNSGAIGYADSVKGRFTVSRDNSKNSLYLQMNSLRAEDTAVYYCARDYYYETSGYYYGFDNWGQGTLVTVSS VL: DIQMTQSPSSVSASVGDRVTITCRASQGISRWLAWYQQKPGKAPKLLIYAASNLQSGVPLRFSGSGSGTDFTLTINSLQPEDSATYYCQQTNNFPYTFGQGTKVEIKR .
7.63

// data source = patent EP4628892A1
